These measurements were taken from ChEMBL document CHEMBL1201862.

# Tested on: LOX IMVI
# assay-explanation: NCI tumour cell line growth inhibition, 48 h
Calls of active or inactive are those of the source. Rule as the data show it: active = GI50 up to about 1.1 µM and inactive = higher.
Respond using exactly one of the listed classes: active, inactive

Worked examples follow.
O=c1cc(CNC2CCCC2)[nH]c(=O)[nH]1: inactive
c1ccc2c(c1)N=C(c1ccc3ccccc3c1)CC(c1cccc3ccccc13)S2 (configuration not stated): inactive
CN(/N=C/c1cccc2cccnc12)c1ccc([N+](=O)[O-])cc1: inactive
COc1cc(C2C3=C(COC3=O)Oc3cc4c(cc32)OCO4)ccc1O (configuration not stated): active
Cc1c(-c2ccc(-c3ccccc3F)cc2)nc2ccc(F)cc2c1C(=O)O [BREQUINAR SODIUM]: active
CC(=O)N(CN1C(=O)CCC1C(=O)O)c1ccccc1Cl (configuration not stated): inactive
CC(=O)OC(C)c1cc2c(s1)C(=O)c1sccc1C2=O (configuration not stated): active
Oc1c(CN2CCOCC2)ccc(CN2CCOCC2)c1O: inactive
O=C1ON=C2C3CC4CC12CC1(C3)C(=O)ON=C41: inactive
O=c1oc2c3ccc4ccccc4c3n(CCN3CCCCC3)c2c2ccccc12: inactive

// switching to the query compound
Lab log entry: COc1ccc(/C=C2\CCC(CCN3CCOCC3)C2=O)cc1 (configuration not stated) — outcome as called in the assay?
inactive

---

# Test system: SNB-75
# assay-explanation: NCI tumour cell line growth inhibition, 48 h
Calls of active or inactive are those of the source. No stated cut-off is given here; in the data, active = GI50 up to about 1.1 µM and inactive = higher.
measurement-type: GI50

# example entries with known answers
C#CC[C@]12CC(=O)CC[C@H]1CC(=O)C2: > 100 µM (inactive)
CCOC(=O)COc1cc(-c2ccccc2F)nc2cc3c(cc12)OCO3: 59.4 µM (inactive)
N=c1c2c3n(c4c(=O)n(-c5ccccc5)c(=S)n(c(=O)n1-c1ccccc1)c24)CCCCC3: > 63.1 µM (inactive)
CC(=O)OC(C)c1cc2c(s1)C(=O)c1sccc1C2=O (centres undefined): 1.29 µM (inactive)
O=C1ON=C2C3CC4CC12CC1(C3)C(=O)ON=C41: > 100 µM (inactive)

Return the recorded GI50 value; entry: CCCC(C)c1c(Cl)nc(Cl)nc1Cl (centres undefined)
14.5 µM (inactive)

Return the recorded GI50 value; entry: CN(/N=C/c1cccc2cccnc12)c1ccc([N+](=O)[O-])cc1
21.4 µM (inactive)

Return the recorded GI50 value; entry: CC(=O)N(C(C)=O)n1c(Cc2ccc(C)cc2)nn(C(C)=O)c1=O
> 100 µM (inactive)

Return the recorded GI50 value; entry: CC(=O)OCC1=C(CCC#N)N2C(=O)C(NC(=O)Cc3cccs3)C2[S+]([O-])C1 (centres undefined)
> 100 µM (inactive)

---

Reported values of GI50 for individual entries
# System: SF-295
# assay-explanation: NCI tumour cell line growth inhibition, 48 h
The source made the active and inactive calls. No stated cut-off is given here; in the data, active = GI50 up to about 1.1 µM and inactive = higher.

# example entries with known answers
CC(=O)Nc1ccccc1S(=O)(=O)c1c(-c2c(C)c(Cl)c(C)c(Cl)c2C)noc1C: 32.8 µM (inactive)
N#CC(C(=O)C(=O)Nc1ccc(Cl)c(Cl)c1)c1ccc(Cl)cc1 (centres undefined): 87.9 µM (inactive)
COc1ccc2c(O)c1-c1c(OC)ccc(c1O)SSc1ccc(OC)c(c1O)-c1c(OC)ccc(c1O)SS2: > 100 µM (inactive)
O=P1(Oc2ccc(Cl)cc2Cl)Oc2cc3ccccc3cc2O1: 59.3 µM (inactive)
NC(=S)Nc1nc(=S)[nH]c2c1SC1=N/C(=C\c3ccco3)C(=O)N12: > 100 µM (inactive)
Cc1nc(C(N)=S)sc1C(=O)C/C(=N/N)C(=O)Nc1cccc(Cl)c1C: > 100 µM (inactive)

Return the recorded GI50 value; entry: COc1c2occc2c(N)c2ccc(=O)oc12
> 100 µM (inactive)

Return the recorded GI50 value; entry: O=C(O)c1cscc1Cc1cccs1
> 100 µM (inactive)

Return the recorded GI50 value; entry: COc1cccc2nc3ccccc3nc12
80 µM (inactive)

Return the recorded GI50 value; entry: COc1cc(CC(C)NC(C)=O)cc(OC)c1 (centres undefined)
> 100 µM (inactive)

Return the recorded GI50 value; entry: COC(=O)C12CC(c3ccccc31)C1C(=O)OC(=O)C12 (centres undefined)
> 100 µM (inactive)

Return the recorded GI50 value; entry: C/C=C(\C)c1cc(O)c(C)c2c1Oc1cc(O)c(Cl)c(C)c1C(=O)O2
16.7 µM (inactive)

Return the recorded GI50 value; entry: Cc1ccc(C)c(C2NC(=O)c3ccccc3N2)c1 (centres undefined)
1.12 µM (inactive)

Return the recorded GI50 value; entry: NCCCN(CCCCN(CCCN)C(=O)OCc1ccccc1)C(=O)OCc1ccccc1
> 100 µM (inactive)
